Reference for the values: BigSolDB 2.1

CONDITION_LABEL: in ethanol, 300.15 K
EXPERIMENTAL_READOUT: solubility (mole fraction)
Reply with just the number.

QUERY: What value of measured solubility (mole fraction) is listed for "COc1cc([N+](=O)[O-])c(OC)cc1Cl" ?
RESULT: 0.00135

###

CONDITION_LABEL: in m-xylene, 290.05 K
EXPERIMENTAL_READOUT: solubility (mole fraction)
Quick one: just the number, no unit, thanks!

QUERY: Could you share which solubility (mole fraction) value was measured for "COc1cc([N+](=O)[O-])c(OC)cc1Cl" ?
RESULT: 0.0118

###

CONDITION_LABEL: in methanol, 306.55 K
EXPERIMENTAL_READOUT: solubility (mole fraction)

QUERY: What does the data say about its solubility (mole fraction)? Entry: "COc1cc(Cl)c(OC)cc1N"
RESULT: 0.0099

###

CONDITION_LABEL: in m-xylene, 335.65 K
EXPERIMENTAL_READOUT: solubility (mole fraction)
Write no unit; give the number alone.

QUERY: If you can, please state the reported solubility (mole fraction) value of "COc1cc(Cl)c(OC)cc1N" .
RESULT: 0.0791

###

CONDITION_LABEL: in methanol, 297.55 K
EXPERIMENTAL_READOUT: solubility (mole fraction)
Just the number, please.

QUERY: Form field: reported solubility (mole fraction) of "COc1cc([N+](=O)[O-])c(OC)cc1Cl"
RESULT: 0.00109

###

CONDITION_LABEL: in m-xylene, 308.85 K
EXPERIMENTAL_READOUT: solubility (mole fraction)
Response field accepts a number only; no unit should be typed.

QUERY: Given the compound "COc1cc([N+](=O)[O-])c(OC)cc1Cl" , what is its reported solubility (mole fraction)?
RESULT: 0.024

###

CONDITION_LABEL: in m-xylene, 332.05 K
EXPERIMENTAL_READOUT: solubility (mole fraction)
// print number alone

QUERY: Recorded solubility (mole fraction) for "COc1cc([N+](=O)[O-])c(OC)cc1Cl" , please?
RESULT: 0.0561

###

CONDITION_LABEL: in toluene, 325.45 K
EXPERIMENTAL_READOUT: solubility (mole fraction)
Number, no unit, nothing else.

QUERY: Param item = "COc1cc(Cl)c(OC)cc1N" ; retrieve measured solubility (mole fraction).
RESULT: 0.0641

###

CONDITION_LABEL: in ethanol, 314.85 K
EXPERIMENTAL_READOUT: solubility (mole fraction)
Just the number, please, no unit after it.

QUERY: Which solubility (mole fraction) value is on record for "COc1cc([N+](=O)[O-])c(OC)cc1Cl" ?
RESULT: 0.00274

###

CONDITION_LABEL: in o-xylene, 292.75 K
EXPERIMENTAL_READOUT: solubility (mole fraction)

QUERY: Can you look up the measured solubility (mole fraction) of "COc1cc(Cl)c(OC)cc1N" for me?
RESULT: 0.0117

###

CONDITION_LABEL: in o-xylene, 323.95 K
EXPERIMENTAL_READOUT: solubility (mole fraction)
Enter a number only.

QUERY: Dear colleague, I am looking for the recorded solubility (mole fraction) of the following compound: "COc1cc([N+](=O)[O-])c(OC)cc1Cl"
RESULT: 0.0476

###

CONDITION_LABEL: in m-xylene, 277.35 K
EXPERIMENTAL_READOUT: solubility (mole fraction)
Keep it simple and answer with nothing but the number.

QUERY: Give its solubility (mole fraction) value. Item: "COc1cc(Cl)c(OC)cc1N"
RESULT: 0.00495

###

CONDITION_LABEL: in methanol, 285.55 K
EXPERIMENTAL_READOUT: solubility (mole fraction)
The response must contain the number and no unit.

QUERY: Report solubility (mole fraction) for "COc1cc([N+](=O)[O-])c(OC)cc1Cl" please.
RESULT: 0.000598

###

CONDITION_LABEL: in o-xylene, 280.45 K
EXPERIMENTAL_READOUT: solubility (mole fraction)
Field format: numeric only.

QUERY: // returns reported solubility (mole fraction) for input "COc1cc([N+](=O)[O-])c(OC)cc1Cl"
RESULT: 0.00956

###

CONDITION_LABEL: in toluene, 306.25 K
EXPERIMENTAL_READOUT: solubility (mole fraction)
Give a plain numeric answer without units written out.

QUERY: Request the reported solubility (mole fraction) associated with "COc1cc(Cl)c(OC)cc1N"
RESULT: 0.0263

###

CONDITION_LABEL: in m-xylene, 335.35 K
EXPERIMENTAL_READOUT: solubility (mole fraction)
API doc: respond with a numeric literal and nothing else, no unit.

QUERY: Report solubility (mole fraction) for "COc1cc([N+](=O)[O-])c(OC)cc1Cl" please.
RESULT: 0.0645

###

CONDITION_LABEL: in toluene, 337.35 K
EXPERIMENTAL_READOUT: solubility (mole fraction)
Could you respond with only the numeric value?

QUERY: Which value of solubility (mole fraction) has been reported for "COc1cc([N+](=O)[O-])c(OC)cc1Cl" in the records?
RESULT: 0.0852

###

CONDITION_LABEL: in toluene, 312.35 K
EXPERIMENTAL_READOUT: solubility (mole fraction)
Hey, just send me the number, nothing else.

QUERY: Could you tell me which solubility (mole fraction) is on file for "COc1cc([N+](=O)[O-])c(OC)cc1Cl" ?
RESULT: 0.0347

###

CONDITION_LABEL: in p-xylene, 313.55 K
EXPERIMENTAL_READOUT: solubility (mole fraction)
The response must contain the number and no unit.

QUERY: What value of solubility (mole fraction) has been reported for the following compound? "COc1cc(Cl)c(OC)cc1N"
RESULT: 0.026

###

CONDITION_LABEL: in methanol, 282.45 K
EXPERIMENTAL_READOUT: solubility (mole fraction)
The answer should be a number; do not append a unit.

QUERY: Which solubility (mole fraction) value is on record for "COc1cc(Cl)c(OC)cc1N" ?
RESULT: 0.00342

###

CONDITION_LABEL: in p-xylene, 306.05 K
EXPERIMENTAL_READOUT: solubility (mole fraction)
// keep it numeric: no unit symbol after the value

QUERY: Item "COc1cc(Cl)c(OC)cc1N" has what recorded solubility (mole fraction)?
RESULT: 0.0186

###

CONDITION_LABEL: in p-xylene, 297.55 K
EXPERIMENTAL_READOUT: solubility (mole fraction)
Please give only the number in your answer, with no unit.

QUERY: Need solubility (mole fraction), item "COc1cc([N+](=O)[O-])c(OC)cc1Cl"
RESULT: 0.0168

###

CONDITION_LABEL: in methanol, 278.05 K
EXPERIMENTAL_READOUT: solubility (mole fraction)
In your answer, state the number alone without any accompanying words.

QUERY: Look at this compound and give its reported solubility (mole fraction). "COc1cc(Cl)c(OC)cc1N"
RESULT: 0.00282

###

CONDITION_LABEL: in toluene, 308.75 K
EXPERIMENTAL_READOUT: solubility (mole fraction)
Keep the answer to the number alone.

QUERY: Recorded solubility (mole fraction) for "COc1cc([N+](=O)[O-])c(OC)cc1Cl" , please?
RESULT: 0.0308

###

CONDITION_LABEL: in toluene, 277.45 K
EXPERIMENTAL_READOUT: solubility (mole fraction)
Returns: the value as a bare number; no unit string appended.

QUERY: Quick one: solubility (mole fraction) for "COc1cc([N+](=O)[O-])c(OC)cc1Cl" ?
RESULT: 0.00969

###

CONDITION_LABEL: in ethanol, 325.05 K
EXPERIMENTAL_READOUT: solubility (mole fraction)

QUERY: // lookup solubility (mole fraction) for "COc1cc(Cl)c(OC)cc1N"
RESULT: 0.024

###

CONDITION_LABEL: in o-xylene, 285.55 K
EXPERIMENTAL_READOUT: solubility (mole fraction)
Lab note: record just the number, no unit beside it.

QUERY: Value lookup for solubility (mole fraction); key = "COc1cc(Cl)c(OC)cc1N"
RESULT: 0.00831

###

CONDITION_LABEL: in p-xylene, 321.25 K
EXPERIMENTAL_READOUT: solubility (mole fraction)
The answer should be a number; do not append a unit.

QUERY: Fill blank: measured solubility (mole fraction) of the compound "COc1cc(Cl)c(OC)cc1N" is ____.
RESULT: 0.0371

###

CONDITION_LABEL: in toluene, 293.35 K
EXPERIMENTAL_READOUT: solubility (mole fraction)

QUERY: Report solubility (mole fraction) for "COc1cc(Cl)c(OC)cc1N" please.
RESULT: 0.0146
